# Tested on: leukemia L1210 cells
# Experiment Notes: anticancer activity test against mouse leukemia L1210 cells implanted in BDF1 mice
# Assay type: in vivo
# Condition Description: 60 mg/kg, intra-peritoneal, days 1, 5 and 9
Property: Increased life span (ILS)

• O=C1[O][Pt-2]2([NH2+]CC[NH2+]2)[O]C(=O)C1NP1(NC2C(=O)[O][Pt-2]3([NH2+]CC[NH2+]3)[O]C2=O)=NP(NC2C(=O)[O][Pt-2]3([NH2+]CC[NH2+]3)[O]C2=O)(NC2C(=O)[O][Pt-2]3([NH2+]CC[NH2+]3)[O]C2=O)=NP(NC2C(=O)[O][Pt-2]3([NH2+]CC[NH2+]3)[O]C2=O)(NC2C(=O)[O][Pt-2]3([NH2+]CC[NH2+]3)[O]C2=O)=N1 (stereo not drawn) [Example 18, [NP(Am·Pt(en))2]3] = Toxic
• O=C1C[C@H](NP2(N[C@H]3CC(=O)[O][Pt-2]4([NH2+]CC[NH2+]4)[O]C3=O)=NP(N[C@H]3CC(=O)[O][Pt-2]4([NH2+]CC[NH2+]4)[O]C3=O)(N[C@H]3CC(=O)[O][Pt-2]4([NH2+]CC[NH2+]4)[O]C3=O)=NP(N[C@H]3CC(=O)[O][Pt-2]4([NH2+]CC[NH2+]4)[O]C3=O)(N[C@H]3CC(=O)[O][Pt-2]4([NH2+]CC[NH2+]4)[O]C3=O)=N2)C(=O)[O][Pt-2]2([NH2+]CC[NH2+]2)[O]1 [Example 4, [NP(L-Asp·Pt(en))2]3] = Toxic
• O=C1CC[C@H](NP2(N[C@H]3CCC(=O)[O][Pt-2]4([NH2+]CC[NH2+]4)[O]C3=O)=NP(N[C@H]3CCC(=O)[O][Pt-2]4([NH2+]CC[NH2+]4)[O]C3=O)(N[C@H]3CCC(=O)[O][Pt-2]4([NH2+]CC[NH2+]4)[O]C3=O)=NP(N[C@H]3CCC(=O)[O][Pt-2]4([NH2+]CC[NH2+]4)[O]C3=O)(N[C@H]3CCC(=O)[O][Pt-2]4([NH2+]CC[NH2+]4)[O]C3=O)=N2)C(=O)[O][Pt-2]2([NH2+]CC[NH2+]2)[O]1 [Example 13, [NP(L-Glu·Pt(en))2]3] = Toxic
• O=C1CCC(NP2(NC3CCC(=O)[O][Pt-2]4([NH2+]C5CCCCC5[NH2+]4)[O]C3=O)=NP(NC3CCC(=O)[O][Pt-2]4([NH2+]C5CCCCC5[NH2+]4)[O]C3=O)(NC3CCC(=O)[O][Pt-2]4([NH2+]C5CCCCC5[NH2+]4)[O]C3=O)=NP(NC3CCC(=O)[O][Pt-2]4([NH2+]C5CCCCC5[NH2+]4)[O]C3=O)(NC3CCC(=O)[O][Pt-2]4([NH2+]C5CCCCC5[NH2+]4)[O]C3=O)=N2)C(=O)[O][Pt-2]2([NH2+]C3CCCCC3[NH2+]2)[O]1 [Example 8, [NP(L-Glu·Pt(dach))2]3] = > 400%
• CC1(C)C[NH2+][Pt-2]2([NH2+]C1)[O]C(=O)C[C@H](NP1(N[C@H]3CC(=O)[O][Pt-2]4([NH2+]CC(C)(C)C[NH2+]4)[O]C3=O)=NP(N[C@H]3CC(=O)[O][Pt-2]4([NH2+]CC(C)(C)C[NH2+]4)[O]C3=O)(N[C@H]3CC(=O)[O][Pt-2]4([NH2+]CC(C)(C)C[NH2+]4)[O]C3=O)=NP(N[C@H]3CC(=O)[O][Pt-2]4([NH2+]CC(C)(C)C[NH2+]4)[O]C3=O)(N[C@H]3CC(=O)[O][Pt-2]4([NH2+]CC(C)(C)C[NH2+]4)[O]C3=O)=N1)C(=O)[O]2 [Example 2, [NP(L-Asp·Pt(dmpda))2]3] = 147.9%
• O=C1CC(NP2(NC3CC(=O)[O][Pt-2]4([NH2+]C5CCCCC5[NH2+]4)[O]C3=O)=NP(NC3CC(=O)[O][Pt-2]4([NH2+]C5CCCCC5[NH2+]4)[O]C3=O)(NC3CC(=O)[O][Pt-2]4([NH2+]C5CCCCC5[NH2+]4)[O]C3=O)=NP(NC3CC(=O)[O][Pt-2]4([NH2+]C5CCCCC5[NH2+]4)[O]C3=O)(NC3CC(=O)[O][Pt-2]4([NH2+]C5CCCCC5[NH2+]4)[O]C3=O)=N2)C(=O)[O][Pt-2]2([NH2+]C3CCCCC3[NH2+]2)[O]1 [Example 1, [NP(L-Asp·Pt(dach))2]3] = > 448.8%

meta.source: patent US6221906A
